procedureSummary: in vivo
measurementContext: male, cynomolgus monkey, iv, 30 ug/kg
Where a SMILES comes first, the peptide text is derived from it. [ ]: non-standard residue; d: D form. pGlu = O=C1CC[C@@H](C(=O)O)N1
readoutName: AUC (ng·h/mL)
# value in ng·h/mL; strip the unit string

[Q] Item CC(C)C[C@H](NC(=O)[C@H](Cc1c[nH]c2ccccc12)NC(=O)CNC(=O)[C@H](Cc1ccc(O)cc1)NC(=O)[C@H](C)NC(=O)[C@H](CCC(=O)O)NC(=O)[C@H](CCC(=O)O)NC(=O)[C@H](CCC(=O)O)NC(=O)[C@H](CCC(=O)O)NC(=O)[C@H](CCC(=O)O)NC(=O)[C@H](CC(C)C)NC(=O)[C@H](Cc1c[nH]c2ccccc12)NC(=O)[C@@H]1CCCN1C(=O)CNC(=O)[C@@H]1CCC(=O)N1)C(=O)N[C@@H](CC(=O)O)C(=O)N[C@@H](Cc1ccccc1)C(N)=O [Compound B] ([pGlu]GPWLEEEEEAYGWLDF-NH2) has what recorded AUC?
[A] 42.1

Ref: patent US20040229810A1
